# Experimental System: UniProtKB P51582
# Method Notes: Agonist activity at human recombinant P2Y4 receptor expressed in human 1321N1 cells assessed as [3H]inositol phosphate intracellular accumulation by scintillation proximity assay
# Type: functional, cell-based
pEC50: −log10 of the molar value.
Observation Type: pEC50

O=C(Cn1c(=O)ccn([C@@H]2O[C@H](COP(=O)(O)OP(=O)(O)C(F)(F)P(=O)(O)O)[C@@H](O)[C@H]2O)c1=O)c1ccccc1	5.41
O=c1ccn([C@@H]2O[C@H](COP(=O)(O)OP(=O)(O)C(Cl)(Cl)P(=O)(O)O)[C@@H](O)[C@H]2O)c(=S)[nH]1	5.41
O=c1ccn([C@@H]2O[C@H](COP(=O)(O)OP(=O)(O)O)[C@@H](O)[C@H]2O)c(SCc2ccccc2)n1	5.22
CCCSc1nc(=O)ccn1[C@@H]1O[C@H](COP(=O)(O)OP(=O)(O)O)[C@@H](O)[C@H]1O	5.31
COc1nc(=O)ccn1[C@@H]1O[C@H](COP(=O)(O)OP(=O)(O)O)[C@@H](O)[C@H]1O	5.35

A: CCSc1nc(=O)ccn1[C@@H]1O[C@H](COP(=O)(O)O)[C@@H](O)[C@H]1O
B: O=C(Cn1c(=O)ccn([C@@H]2O[C@H](COP(=O)(O)OP(=O)(O)C(Cl)(Cl)P(=O)(O)O)[C@@H](O)[C@H]2O)c1=O)c1ccccc1
Enquiry: Lower pEC50: A or B ? State your choice using its label.
Return: B

* * *

# Experimental System: P2Y purinoceptor 4 (Homo sapiens)
# Sequence (P51582 whole entry): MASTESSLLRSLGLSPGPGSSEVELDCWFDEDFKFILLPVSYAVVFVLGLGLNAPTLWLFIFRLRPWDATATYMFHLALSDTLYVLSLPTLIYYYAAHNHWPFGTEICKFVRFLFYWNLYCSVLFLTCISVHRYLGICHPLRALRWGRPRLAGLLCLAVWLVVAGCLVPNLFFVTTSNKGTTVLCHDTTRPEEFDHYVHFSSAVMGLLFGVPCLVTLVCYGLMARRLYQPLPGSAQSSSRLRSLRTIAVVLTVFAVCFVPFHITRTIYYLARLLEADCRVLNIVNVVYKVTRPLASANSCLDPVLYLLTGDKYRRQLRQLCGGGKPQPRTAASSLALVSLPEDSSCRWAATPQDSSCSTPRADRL
# Method Notes: Agonist activity at human recombinant P2Y4 receptor expressed in human 1321N1 cells assessed as [3H]inositol phosphate intracellular accumulation by scintillation proximity assay
# Assay type: functional, cell-based
Observation Type: EC50 (µM)

O=c1[nH]c(=S)ccn1[C@@H]1O[C@H](COP(=O)(O)OP(=O)(O)C(F)(F)P(=O)(O)O)[C@@H](O)[C@H]1O	9.3

1: CSc1nc(=O)ccn1[C@@H]1O[C@H](COP(=O)(O)OP(=O)(O)O)[C@@H](O)[C@H]1O
2: O=c1[nH]c(=S)ccn1[C@@H]1O[C@H](COP(=O)(O)OP(=O)(O)C(Cl)(Cl)P(=O)(O)O)[C@@H](O)[C@H]1O
3: O=c1ccn([C@@H]2O[C@H](COP(=O)(O)OP(=O)(O)OP(=O)(O)O)[C@@H](O)[C@H]2O)c(=O)[nH]1 [URIDINE TRIPHOSPHATE]
4: O=c1ccn([C@@H]2O[C@H](COP(=O)(O)OP(=O)(O)O)[C@@H](O)[C@H]2O)c(=O)[nH]1 [URIDINE_DIPHOSPHATE]
5: O=c1[nH]c(=S)ccn1[C@@H]1O[C@H](COP(=O)(O)OP(=O)(O)OP(=O)(O)O)[C@@H](O)[C@H]1O
Enquiry: Thanks in advance: please rank these 5 entries by EC50, highest to lowest. Write the labels in rank order as requested.
Return: 4, 2, 1, 3, 5

* * *

# Experimental System: P2Y purinoceptor 6 (Homo sapiens, UniProt Q15077)
# Sequence (Q15077 whole entry): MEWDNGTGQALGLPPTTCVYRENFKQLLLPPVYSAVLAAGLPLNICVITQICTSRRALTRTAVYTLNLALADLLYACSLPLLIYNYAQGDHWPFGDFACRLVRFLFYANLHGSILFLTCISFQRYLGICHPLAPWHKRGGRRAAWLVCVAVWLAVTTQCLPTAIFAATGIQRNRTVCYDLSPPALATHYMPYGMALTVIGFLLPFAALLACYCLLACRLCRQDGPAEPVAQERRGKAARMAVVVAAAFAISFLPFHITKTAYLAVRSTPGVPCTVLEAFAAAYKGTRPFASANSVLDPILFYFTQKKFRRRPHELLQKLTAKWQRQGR
# Method Notes: Agonist activity at human recombinant P2Y6 receptor expressed in human 1321N1 cells assessed as [3H]inositol phosphate intracellular accumulation by scintillation proximity assay
# Assay type: functional, cell-based
pEC50: −log10 of the molar value.
Observation Type: pEC50

Illustrative cases are given below, each with its answer.
CSc1nc(=O)ccn1[C@@H]1O[C@H](COP(=O)(O)OP(=O)(O)O)[C@@H](O)[C@H]1O	5.33
O=c1ccn([C@@H]2O[C@H](COP(=O)(O)OP(=O)(O)C(Cl)(Cl)P(=O)(O)O)[C@@H](O)[C@H]2O)c(=S)[nH]1	5.11
O=C(Cn1c(=O)ccn([C@@H]2O[C@H](COP(=O)(O)OP(=O)(O)C(Cl)(Cl)P(=O)(O)O)[C@@H](O)[C@H]2O)c1=O)c1ccccc1	6.85
O=c1ccn([C@@H]2O[C@H](COP(=O)(O)OP(=O)(O)O)[C@@H](O)[C@H]2O)c(=O)[nH]1 [URIDINE_DIPHOSPHATE]	7.32
O=c1ccn([C@@H]2O[C@H](COP(=O)(O)OP(=O)(O)O)[C@@H](O)[C@H]2O)c(SCc2ccccc2)n1	5.17
O=c1[nH]c(=S)ccn1[C@@H]1O[C@H](COP(=O)(O)OP(=O)(O)C(F)(F)P(=O)(O)O)[C@@H](O)[C@H]1O	5.15

I: COc1nc(=O)ccn1[C@@H]1O[C@H](COP(=O)(O)O)[C@@H](O)[C@H]1O
II: CCCSc1nc(=O)ccn1[C@@H]1O[C@H](COP(=O)(O)O)[C@@H](O)[C@H]1O
III: O=C(Cn1c(=O)ccn([C@@H]2O[C@H](COP(=O)(O)OP(=O)(O)C(F)(F)P(=O)(O)O)[C@@H](O)[C@H]2O)c1=O)c1ccccc1
Enquiry: Order the records by pEC50, with each subsequent value no larger than the one before. Write the labels, ordered according to the request.
Return: III, II, I

* * *

Property: Ratio EC50; scope: individual molecules
# Species: Homo sapiens
# Method Notes: Selectivity ratio of EC50 for human P2Y6 receptor to EC50 for human P2Y2 receptor
Reply briefly: the number, and no unit.

O=c1ccn([C@@H]2O[C@H](COP(=O)(O)O)[C@@H](O)[C@H]2O)c(SCCc2ccccc2)n1	100

Value of measured Ratio EC50 for the entry O=c1ccn([C@@H]2O[C@H](COP(=O)(O)OP(=O)(O)C(F)(F)P(=O)(O)O)[C@@H](O)[C@H]2O)c(=O)[nH]1 : 2

* * *

# Organism: Homo sapiens
# Method Notes: Selectivity ratio of EC50 for human P2Y4 receptor to EC50 for human P2Y2 receptor
Reported Ratio EC50 values follow for various compounds

O=c1[nH]c(=S)ccn1[C@@H]1O[C@H](COP(=O)(O)OP(=O)(O)C(F)(F)P(=O)(O)O)[C@@H](O)[C@H]1O	> 60
Nc1nc(=O)ccn1[C@@H]1O[C@H](COP(=O)(O)OP(=O)(O)O)[C@@H](O)[C@H]1O	> 100
O=c1ccn([C@@H]2O[C@H](COP(=O)(O)O)[C@@H](O)[C@H]2O)c(SCCc2ccccc2)n1	> 100

Now take the following compound into account.
Measured Ratio EC50 of Nc1nc(=O)ccn1[C@@H]1O[C@H](COP(=O)(O)O)[C@@H](O)[C@H]1O : > 100

* * *

# Experimental System: P2Y purinoceptor 6 (Homo sapiens)
# Method Notes: Agonist activity at human recombinant P2Y6 receptor expressed in human 1321N1 cells assessed as [3H]inositol phosphate intracellular accumulation by scintillation proximity assay
# Type: functional, cell-based
pEC50: −log10 of the molar value.
Observation Type: pEC50

See these solved cases before continuing.
O=c1ccn([C@@H]2O[C@H](COP(=O)(O)OP(=O)(O)O)[C@@H](O)[C@H]2O)c(SCCc2ccccc2)n1	5.60
O=c1[nH]c(=O)n([C@@H]2O[C@H](COP(=O)(O)OP(=O)(O)OP(=O)(O)Nc3ccccc3)[C@@H](O)[C@H]2O)cc1Br	5.21

1: O=c1[nH]c(=S)ccn1[C@@H]1O[C@H](COP(=O)(O)OP(=O)(O)C(Cl)(Cl)P(=O)(O)O)[C@@H](O)[C@H]1O
2: COc1nc(=O)ccn1[C@@H]1O[C@H](COP(=O)(O)OP(=O)(O)O)[C@@H](O)[C@H]1O
Enquiry: Of 1 and 2 , whose reported pEC50 is numerically smaller? Could you answer with the label of the item you picked?
Return: 1

* * *

# Experimental System: P2Y purinoceptor 2 (Homo sapiens)
# Sequence (P41231 whole entry): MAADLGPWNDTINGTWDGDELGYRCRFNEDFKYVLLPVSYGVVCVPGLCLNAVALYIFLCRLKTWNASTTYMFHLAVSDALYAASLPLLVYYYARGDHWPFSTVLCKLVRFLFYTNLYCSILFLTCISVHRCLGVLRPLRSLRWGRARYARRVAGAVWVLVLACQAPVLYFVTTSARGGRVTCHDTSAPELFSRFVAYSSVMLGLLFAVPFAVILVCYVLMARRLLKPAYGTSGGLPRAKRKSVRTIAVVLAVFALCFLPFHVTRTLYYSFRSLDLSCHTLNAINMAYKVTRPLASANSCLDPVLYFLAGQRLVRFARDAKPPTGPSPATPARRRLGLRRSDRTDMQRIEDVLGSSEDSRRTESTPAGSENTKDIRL
# Method Notes: Agonist activity at human recombinant P2Y2 receptor expressed in human 1321N1 cells assessed as [3H]inositol phosphate intracellular accumulation by scintillation proximity assay
# Format: functional, cell-based
Observation Type: EC50 (µM)

Example entries and their recorded answers appear below.
O=c1[nH]c(=O)n([C@@H]2O[C@H](COP(=O)(O)OP(=O)(O)OP(=O)(O)Nc3ccccc3)[C@@H](O)[C@H]2O)cc1Br	1.8
CSc1nc(=O)ccn1[C@@H]1O[C@H](COP(=O)(O)O)[C@@H](O)[C@H]1O	2.9
CCSc1nc(=O)ccn1[C@@H]1O[C@H](COP(=O)(O)O)[C@@H](O)[C@H]1O	1.5
O=c1ccn([C@@H]2O[C@H](COP(=O)(O)OP(=O)(O)C(Cl)(Cl)P(=O)(O)O)[C@@H](O)[C@H]2O)c(=S)[nH]1	0.794

I: O=c1ccn([C@@H]2O[C@H](COP(=O)(O)O)[C@@H](O)[C@H]2O)c(SCCc2ccccc2)n1
II: O=C(Cn1c(=O)ccn([C@@H]2O[C@H](COP(=O)(O)OP(=O)(O)C(Cl)(Cl)P(=O)(O)O)[C@@H](O)[C@H]2O)c1=O)c1ccccc1
III: CSc1nc(=O)ccn1[C@@H]1O[C@H](COP(=O)(O)OP(=O)(O)O)[C@@H](O)[C@H]1O
IV: O=c1ccn([C@@H]2O[C@H](COP(=O)(O)OP(=O)(O)O)[C@@H](O)[C@H]2O)c(SCc2ccccc2)n1
V: COc1nc(=O)ccn1[C@@H]1O[C@H](COP(=O)(O)O)[C@@H](O)[C@H]1O
Enquiry: // smallest EC50 at index 0, largest at the end Returns: the labels arranged in the requested order.
Return: III, II, I, IV, V

I: O=c1[nH]c(=S)ccn1[C@@H]1O[C@H](COP(=O)(O)OP(=O)(O)C(Cl)(Cl)P(=O)(O)O)[C@@H](O)[C@H]1O
II: Nc1nc(=O)ccn1[C@@H]1O[C@H](COP(=O)(O)OP(=O)(O)O)[C@@H](O)[C@H]1O
III: CCCSc1nc(=O)ccn1[C@@H]1O[C@H](COP(=O)(O)OP(=O)(O)O)[C@@H](O)[C@H]1O
Enquiry: Your job: order these 3 records by EC50, ascending. List the labels, following the order given in the request.
Return: II, III, I
